# STUDY SYSTEM: Protein Mdm4 (Homo sapiens) + E3 ubiquitin-protein ligase Mdm2 (Homo sapiens) (UniProt O15151+Q00987)
# Sequence (O15151 whole entry, looked up): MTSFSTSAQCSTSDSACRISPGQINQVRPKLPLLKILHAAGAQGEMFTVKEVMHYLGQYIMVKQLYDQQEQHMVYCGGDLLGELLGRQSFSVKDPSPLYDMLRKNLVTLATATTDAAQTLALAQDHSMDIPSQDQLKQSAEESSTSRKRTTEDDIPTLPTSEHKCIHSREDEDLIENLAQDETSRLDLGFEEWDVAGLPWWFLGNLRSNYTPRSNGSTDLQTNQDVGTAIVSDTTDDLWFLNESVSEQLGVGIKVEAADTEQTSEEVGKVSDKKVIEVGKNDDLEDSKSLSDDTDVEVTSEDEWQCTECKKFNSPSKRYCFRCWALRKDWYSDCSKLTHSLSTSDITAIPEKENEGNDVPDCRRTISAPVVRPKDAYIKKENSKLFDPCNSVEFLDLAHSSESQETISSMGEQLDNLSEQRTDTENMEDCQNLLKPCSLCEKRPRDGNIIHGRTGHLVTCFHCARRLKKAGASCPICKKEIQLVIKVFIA
# Sequence (Q00987 whole entry, looked up): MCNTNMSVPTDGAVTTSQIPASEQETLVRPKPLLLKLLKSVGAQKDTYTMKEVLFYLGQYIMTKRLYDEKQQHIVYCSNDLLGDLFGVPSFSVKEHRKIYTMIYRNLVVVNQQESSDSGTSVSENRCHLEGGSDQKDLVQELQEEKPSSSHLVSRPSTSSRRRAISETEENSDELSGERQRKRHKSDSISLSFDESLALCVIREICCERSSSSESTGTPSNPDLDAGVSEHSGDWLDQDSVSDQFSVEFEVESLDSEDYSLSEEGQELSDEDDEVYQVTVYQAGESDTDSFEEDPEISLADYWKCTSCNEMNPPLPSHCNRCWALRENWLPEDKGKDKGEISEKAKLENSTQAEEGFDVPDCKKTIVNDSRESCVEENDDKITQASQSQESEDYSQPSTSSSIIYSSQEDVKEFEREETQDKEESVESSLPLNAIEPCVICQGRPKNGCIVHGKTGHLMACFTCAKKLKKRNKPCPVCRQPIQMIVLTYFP
# ASSAY PROTOCOL: inhibitors of human Mdm2-MdmX association, primary screen, cell-based, luminescence, split luciferase, SaOS-2, uHTS (AID 485346)
# MEASUREMENT SETUP: SaOS-2 split-luciferase Mdm2/MdmX complementation, at 8 µM, stronger effect = higher value
Out of some 330,000 compounds screened, about 10,000 (3%) were called active. This excerpt belongs to a sample that is enriched for actives.
RECORDED ENDPOINT: inhibition

compound=Cc1cc(C(=O)N/N=C/c2ccccn2)c2ccccc2n1 reported_result="-15.6% (inactive)"
compound=CN(C)CCCNC(=O)/C=C/c1ccc(OCc2c(F)cccc2Cl)cc1 reported_result="41.4% (inactive)"
compound=Cc1c(C(=O)NCCN2CCOCC2)sc2nc(-c3ccc(F)cc3)cn12 reported_result="7.76% (inactive)"
compound=Cc1nnc(N/N=C/c2ccccn2)[nH]c1=O reported_result="78.6% (active)"

// query What value of measured inhibition is listed for `Cc1cc(O)cc(O)c1C(=O)Cc1cnn(-c2ccccc2)c1` ?
// result -9.6% (inactive)

// query If you can, please state the reported inhibition value of `Cc1c(Cl)cccc1NC(=O)Nc1ccc(C(=O)N2CCCC2)cc1` .
// result 41.9% (inactive)

// query Recorded inhibition of `OCC[C@H]1C[C@H](O)[C@@H](O)[C@]2(CCCCO2)O1` , please.
// result -0.668% (inactive)

// query State the recorded inhibition for this entry: `Cc1ccc(C(=O)NNc2ncnc3ccccc23)cc1`
// result -48.9% (inactive)

// query Return reported inhibition; argument: `O=C1OCCN1C(=O)[C@H]1[C@H](c2ccc(Cl)cc2)C(c2cccc(Cl)c2)=NN1c1ccc(Br)cc1`
// result 43% (inactive)

// query Give the measured inhibition of CN(C)c1ccc(C(CNC(=O)c2ccc(F)cc2)c2c[nH]c3ccccc23)cc1 (stereo not given) .
// result 3.11% (inactive)

// query What value of inhibition has been reported for the following compound? `O=C(COC(=O)C1(c2ccc(F)cc2)CCCC1)N1CCNC1=O`
// result 1.73% (inactive)

// query Looking for the measured inhibition of `CC(C)NC(=O)N1CCN(c2ccncc2S(=O)(=O)N2CCCCC2)CC1` , can you help?
// result 14.5% (inactive)

// query Record request: inhibition value, item `O=C(Nc1ccc(OC(F)(F)F)cc1)c1ccc2c(c1)no[n+]2[O-]`
// result 19% (inactive)

// query For the compound shown here, `COc1ccc(C(=O)Cc2cnn(-c3ccccc3)c2)c(O)c1` , give the reported inhibition.
// result -156% (inactive)

// query Please report the recorded inhibition for CC1(c2ccccc2)NC(=O)N(CC(=O)N2CC(=O)Nc3ccccc32)C1=O (stereo not given) .
// result -7.07% (inactive)
